Reference source: ChEMBL document CHEMBL5537135

# Test system: Erythrocyte
# ASSAY_NOTES: Hemolytic activity against mouse Red blood cell incubated for 1 hr
# Type: toxicity, cell-based
Numbered stars: 1 amine (or outer) side, 2 acyl side, 3 side chain; on linkers, the order of the positions; unused ones are H or OH. Square brackets hold non-standard residues; d marks the D form. Peptide text beside a SMILES is read from it. * marks the point of attachment. X6 = CC(C)C[C@@H](CN(CC(N)=O)S(=O)(=O)c1cc(C(F)(F)F)cc(C(F)(F)F)c1)N*; X5 = NC(=O)CN(C[C@H](Cc1ccccc1)N*)S(=O)(=O)c1ccc(C(F)(F)F)cc1; X3 = CC(C)C[C@@H](CN(CC(N)=O)S(=O)(=O)c1ccc(C(F)(F)F)cc1)N*; X7 = O=S(=O)(c1cc(C(F)(F)F)cc(C(F)(F)F)c1)*; X2 = CC(C)C[C@H](N)CN(CC(=O)[*:2])[*:1]
VALUE_TYPE: MHC
In your response, the unit should come after the numeric value.

Use the examples below as a reference point.
[
  {
    "MOLECULE": "CC(C)C[C@H](NC(=O)[C@H](CC(C)C)NC(=O)[C@H](CCCCN)NC(=O)[C@H](CC(C)C)NC(=O)[C@@H](N)Cc1ccccc1)C(=O)N[C@@H](CCCCN)C(=O)N[C@@H](CCCCN)C(=O)N[C@@H](Cc1ccccc1)CN(CC(N)=O)S(=O)(=O)c1ccc(C(F)(F)F)cc1 (H-FLKLLKK-X5)",
    "VALUE_TYPE": "MHC",
    "DATA_VALUE": "128 µg/mL"
  },
  {
    "MOLECULE": "CC(C)C[C@@H](CN(CC(N)=O)S(=O)(=O)c1cc(C(F)(F)F)cc(C(F)(F)F)c1)NC(=O)[C@H](CCCCN)NC(=O)[C@H](CCCCN)NC(=O)[C@H](CC(C)C)NC(=O)[C@H](CC(C)C)NC(=O)[C@H](CCCCN)NC(=O)[C@H](CC(C)C)NC(=O)[C@@H](N)Cc1ccccc1 (H-FLKLLKK-X6)",
    "VALUE_TYPE": "MHC",
    "DATA_VALUE": "128 µg/mL"
  },
  {
    "MOLECULE": "CC(C)C[C@H](N)CN(CC(=O)N[C@@H](CCCCN)C(=O)N[C@@H](CC(C)C)C(=O)N[C@@H](CC(C)C)C(=O)N[C@@H](CCCCN)C(=O)N[C@@H](CCCCN)C(=O)N[C@@H](CC(C)C)C(=O)N[C@@H](CC(C)C)C(N)=O)S(=O)(=O)c1cc(C(F)(F)F)cc(C(F)(F)F)c1 (X7-[X2]KLLKKLL-NH2)",
    "VALUE_TYPE": "MHC",
    "DATA_VALUE": "128 µg/mL"
  }
]

Continue with the molecule presented below.
// lookup MHC | system=Erythrocyte | key= CC(C)C[C@@H](CN(CC(N)=O)S(=O)(=O)c1ccc(C(F)(F)F)cc1)NC(=O)[C@H](CCCCN)NC(=O)[C@H](CCCCN)NC(=O)[C@H](CC(C)C)NC(=O)[C@H](CC(C)C)NC(=O)[C@H](CCCCN)NC(=O)[C@H](CC(C)C)NC(=O)[C@@H](N)Cc1ccccc1 (H-FLKLLKK-X3)
256 µg/mL

---

# reported MIC; entries follow
# System: Pseudomonas aeruginosa
# ASSAY_NOTES: Antimicrobial activity against multidrug-resistant Pseudomonas aeruginosa 156 assessed as inhibition of visible bacterial growth incubated for 18 hrs by broth-dilution method
# Type: functional
Numbered stars: 1 amine (or outer) side, 2 acyl side, 3 side chain; on linkers, the order of the positions; unused ones are H or OH. Square brackets hold non-standard residues; d marks the D form. Peptide text beside a SMILES is read from it. * marks the point of attachment. X3 = CC(C)C[C@@H](CN(CC(N)=O)S(=O)(=O)c1ccc(C(F)(F)F)cc1)N*; X4 = N[C@@H](Cc1ccccc1)CN(CC(=O)[*:2])[*:1]; X1 = O=S(=O)(c1ccc(C(F)(F)F)cc1)*
Field format: number, assumed µg/mL, no unit text.

[
  {
    "COMPOUND": "CC(C)C[C@H](NC(=O)[C@H](CC(C)C)NC(=O)[C@H](CCCCN)NC(=O)[C@H](CCCCN)NC(=O)[C@H](CC(C)C)NC(=O)[C@H](C)NC(=O)[C@H](CCCCN)NC(=O)CN(C[C@@H](N)Cc1ccccc1)S(=O)(=O)c1ccc(C(F)(F)F)cc1)C(N)=O (X1-[X4]KALKKLL-NH2)",
    "UNITS": "µg/mL",
    "MIC": 16
  },
  {
    "COMPOUND": "C[C@H]1[C@H](NC(=O)/C(=N\\OC(C)(C)C(=O)O)c2csc(N)n2)C(=O)N1S(=O)(=O)O",
    "UNITS": "µg/mL",
    "MIC": 256
  },
  {
    "COMPOUND": "C[C@@H](O)[C@H]1C(=O)N2C(C(=O)O)=C(SCCNC=N)C[C@H]12 [IMIPENEM ANHYDROUS]",
    "UNITS": "µg/mL",
    "MIC": 4
  }
]

Continue with the compound presented below.
// lookup MIC | system=Pseudomonas aeruginosa | key= CC(C)C[C@@H](CN(CC(N)=O)S(=O)(=O)c1ccc(C(F)(F)F)cc1)NC(=O)[C@H](CCCCN)NC(=O)[C@H](CCCCN)NC(=O)[C@H](CC(C)C)NC(=O)[C@H](CC(C)C)NC(=O)[C@H](CCCCN)NC(=O)[C@H](CC(C)C)NC(=O)[C@@H](N)Cc1ccccc1 (H-FLKLLKK-X3)
16

---

# Tested on: Staphylococcus aureus
# ASSAY_NOTES: Antimicrobial activity against methicillin-resistant Staphylococcus aureus ATCC 33591 assessed as inhibition of visible bacterial growth incubated for 18 hrs by broth-dilution method
# Type: functional
Numbered stars: 1 amine (or outer) side, 2 acyl side, 3 side chain; on linkers, the order of the positions; unused ones are H or OH. Square brackets hold non-standard residues; d marks the D form. Peptide text beside a SMILES is read from it. * marks the point of attachment. X8 = NC(=O)CN(C[C@H](Cc1ccccc1)N*)S(=O)(=O)c1cc(C(F)(F)F)cc(C(F)(F)F)c1; X4 = N[C@@H](Cc1ccccc1)CN(CC(=O)[*:2])[*:1]; X7 = O=S(=O)(c1cc(C(F)(F)F)cc(C(F)(F)F)c1)*; X2 = CC(C)C[C@H](N)CN(CC(=O)[*:2])[*:1]; X1 = O=S(=O)(c1ccc(C(F)(F)F)cc1)*
# reported MIC; entries follow
Field format: number, assumed µg/mL, no unit text.

Use the examples below as a reference point.
[
  {
    "COMPOUND": "CC(C)C[C@H](NC(=O)[C@H](CC(C)C)NC(=O)[C@H](CCCCN)NC(=O)[C@H](CCCCN)NC(=O)[C@H](CC(C)C)NC(=O)[C@H](CC(C)C)NC(=O)[C@H](CCCCN)NC(=O)CN(C[C@@H](N)Cc1ccccc1)S(=O)(=O)c1ccc(C(F)(F)F)cc1)C(N)=O (X1-[X4]KLLKKLL-NH2)",
    "UNITS": "µg/mL",
    "MIC": 4
  },
  {
    "COMPOUND": "CC(C)C[C@H](NC(=O)[C@H](CC(C)C)NC(=O)[C@H](CCCCN)NC(=O)[C@H](CC(C)C)NC(=O)[C@@H](N)Cc1ccccc1)C(=O)N[C@@H](CCCCN)C(=O)N[C@@H](CCCCN)C(=O)N[C@@H](Cc1ccccc1)CN(CC(N)=O)S(=O)(=O)c1cc(C(F)(F)F)cc(C(F)(F)F)c1 (H-FLKLLKK-X8)",
    "UNITS": "µg/mL",
    "MIC": 4
  }
]

Continue with the compound presented below.
Find the recorded MIC belonging to CC(C)C[C@H](N)CN(CC(=O)N[C@@H](CCCCN)C(=O)N[C@@H](CC(C)C)C(=O)N[C@@H](CC(C)C)C(=O)N[C@@H](CCCCN)C(=O)N[C@@H](CCCCN)C(=O)N[C@@H](CC(C)C)C(=O)N[C@@H](CC(C)C)C(N)=O)S(=O)(=O)c1cc(C(F)(F)F)cc(C(F)(F)F)c1 (X7-[X2]KLLKKLL-NH2) and report it.
4

---

# reported MIC; entries follow
# System: Staphylococcus epidermidis
# ASSAY_NOTES: Antimicrobial activity against Staphylococcus epidermidis ATCC 12228 assessed as inhibition of visible bacterial growth incubated for 18 hrs by broth-dilution method
# Assay type: functional
Numbered stars: 1 amine (or outer) side, 2 acyl side, 3 side chain; on linkers, the order of the positions; unused ones are H or OH. Square brackets hold non-standard residues; d marks the D form. Peptide text beside a SMILES is read from it. * marks the point of attachment. X6 = CC(C)C[C@@H](CN(CC(N)=O)S(=O)(=O)c1cc(C(F)(F)F)cc(C(F)(F)F)c1)N*; X4 = N[C@@H](Cc1ccccc1)CN(CC(=O)[*:2])[*:1]; X2 = CC(C)C[C@H](N)CN(CC(=O)[*:2])[*:1]; X1 = O=S(=O)(c1ccc(C(F)(F)F)cc1)*
Field format: number, assumed µg/mL, no unit text.

Find the recorded MIC belonging to CC(C)C[C@H](NC(=O)[C@H](CC(C)C)NC(=O)[C@H](CCCCN)NC(=O)[C@H](CCCCN)NC(=O)[C@H](CC(C)C)NC(=O)[C@H](CC(C)C)NC(=O)[C@H](CCCCN)NC(=O)CN(C[C@@H](N)Cc1ccccc1)S(=O)(=O)c1ccc(C(F)(F)F)cc1)C(N)=O (X1-[X4]KLLKKLL-NH2) and report it.
4

And for C[C@@H](O)[C@H]1C(=O)N2C(C(=O)O)=C(SCCNC=N)C[C@H]12 [IMIPENEM ANHYDROUS] ?
1

And for CC(C)C[C@H](N)CN(CC(=O)N[C@@H](CCCCN)C(=O)N[C@@H](CC(C)C)C(=O)N[C@@H](CC(C)C)C(=O)N[C@@H](CCCCN)C(=O)N[C@@H](CCCCN)C(=O)N[C@@H](CC(C)C)C(=O)N[C@@H](CC(C)C)C(N)=O)S(=O)(=O)c1ccc(C(F)(F)F)cc1 (X1-[X2]KLLKKLL-NH2) ?
4

And for CC(C)C[C@@H](CN(CC(N)=O)S(=O)(=O)c1cc(C(F)(F)F)cc(C(F)(F)F)c1)NC(=O)[C@H](CCCCN)NC(=O)[C@H](CCCCN)NC(=O)[C@H](CC(C)C)NC(=O)[C@H](CC(C)C)NC(=O)[C@H](CCCCN)NC(=O)[C@H](CC(C)C)NC(=O)[C@@H](N)Cc1ccccc1 (H-FLKLLKK-X6) ?
16
